# testSystem: T1, biotinylated nerve growth factor (NGF) (Homo sapiens, UniProt P01138, biotin (biotinylated in-house, sites not stated))
# T1 construct: nerve growth factor (NGF), human; R&D Systems 256-GF; also called human nerve growth factor; source: bought: R&D Systems (256-GF), biotinylated in-house
# T1 sequence (P01138 122-241): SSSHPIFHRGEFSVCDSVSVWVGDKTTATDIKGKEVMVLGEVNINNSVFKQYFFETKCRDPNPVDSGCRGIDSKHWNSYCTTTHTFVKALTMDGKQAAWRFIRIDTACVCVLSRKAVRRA
# protocolDetails: AlphaScreen or HTRF; epitope competition assay: biotinylated NGF (detected by streptavidin Europium cryptate) and DyLight650-labelled IgGWFL with increasing concentrations of test IgG; relative affinity
# settings: both partners purified

binder | binding result
evolved scFvWFL variant 126 reformatted as IgG1 (antibody, V domains shown, human IgG1 heavy chain constant region of the TM-YTE IgG1 expression vector; human light chain constant region of the expression vector; IgG1, TM-YTE backbone; selected by the TPBLA from an error-prone PCR library of scFvWFL; source: HEK293/EBNA, co-transfected, purified from the culture medium (Protein A)) VH: QVQLVQSGAEVKKPGSSVKVSCKASGGTFWFGAFTWVRQAPGQGLEWMGGFIPISGLTNLAQNFQGRVTITADESTSTVYMELSSLRSEDTAVYYCARSSRIYDLNPSLTAYYDMDVWGQGTMVTVSS VL: QSVLTQPPSVSAAPGQKVTISCSGSSSDIGNNYVSWYQQLPGTAPKLLIYDNNKRPSGIPDRFSGSKSGTSATLGITGLQTGDEADYYCGTWDSSLSAWVFGGGTKLTVL | binds
evolved scFvWFL variant 16 reformatted as IgG1 (antibody, V domains shown, human IgG1 heavy chain constant region of the TM-YTE IgG1 expression vector; human light chain constant region of the expression vector; IgG1, TM-YTE backbone; selected by the TPBLA from an error-prone PCR library of scFvWFL; source: HEK293/EBNA, co-transfected, purified from the culture medium (Protein A)) VH: QVQLVQSGAEVKKPGSSVKVSCKASGGTFWSGAFTWVRQAPGQGLEWMGGIIPISGLTNLAQNFQGRVTITADESTSTAYMELSSLRSEDTAVYYCARSSRIYDLNPSLTAYYDMDVWGQGTMVTVSS VL: QSVLTQPPSVSAAPGQKVTISCSGSSSDIGNNYVSWYQQLPGTAPKLLIYDNNKRPSGIPDRFSGSKSGTSATLGITGLQTGDEADYYCGTWDSSLSAWVIGGGTKLTVL | binds
